Task for the reader: assign each of the following binders its reported Ratio WT-kd/clone-kd.
# testedSystem: T1, canine NGF tagged at the C-terminus with the Flag tag (canine, UniProt A0A8I3PYI3 122-241)
# T1 construct: mature; Expressed with baculovirus technology; also called feline NGF (processed form identical)
# T1 sequence (A0A8I3PYI3 entry or part of it): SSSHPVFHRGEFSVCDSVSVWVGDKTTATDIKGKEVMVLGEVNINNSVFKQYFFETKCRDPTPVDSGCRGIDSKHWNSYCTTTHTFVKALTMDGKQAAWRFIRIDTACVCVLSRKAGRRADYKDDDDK
# experimentSummary: SPR off-rate screen, Fab-SASA on BSA chip
Form rule: numeric answer, no unit written next to it.

Tell us which Ratio WT-kd/clone-kd value is on record for felinized clone 101 Fab-SASA variant K64D (VH) (Fab, V domains shown, not shown: small tags and cut ends) VH: DVQLVESGGDLVKPGGSLRLTCVASGLSLTSSSMSWVRQAPGKGLQWVSTIYSNGGTYYTDSVDGRFTISKDNAENTLYLQMNNLKTEDTATYYCASIYYYDADYLHWYFDFWGQGALVTVSS VL: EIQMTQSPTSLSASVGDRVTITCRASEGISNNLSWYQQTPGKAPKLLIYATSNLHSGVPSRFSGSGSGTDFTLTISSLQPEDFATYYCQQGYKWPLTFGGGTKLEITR
1.7

Tell us which Ratio WT-kd/clone-kd value is on record for felinized clone 101 Fab-SASA variant T60D (VH) (Fab, V domains shown, not shown: small tags and cut ends) VH: DVQLVESGGDLVKPGGSLRLTCVASGLSLTSSSMSWVRQAPGKGLQWVSTIYSNGGTYYDDSVKGRFTISKDNAENTLYLQMNNLKTEDTATYYCASIYYYDADYLHWYFDFWGQGALVTVSS VL: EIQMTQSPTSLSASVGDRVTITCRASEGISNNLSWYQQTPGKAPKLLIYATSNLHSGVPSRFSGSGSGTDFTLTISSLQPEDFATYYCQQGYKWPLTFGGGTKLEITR
1.66

Tell us which Ratio WT-kd/clone-kd value is on record for felinized clone 101 Fab-SASA variant S34G (VL) (Fab, V domains shown, not shown: small tags and cut ends) VH: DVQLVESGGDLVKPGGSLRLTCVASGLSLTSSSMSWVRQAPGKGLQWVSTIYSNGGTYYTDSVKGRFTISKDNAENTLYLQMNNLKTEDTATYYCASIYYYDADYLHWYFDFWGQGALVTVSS VL: EIQMTQSPTSLSASVGDRVTITCRASEGISNNLGWYQQTPGKAPKLLIYATSNLHSGVPSRFSGSGSGTDFTLTISSLQPEDFATYYCQQGYKWPLTFGGGTKLEITR
1.83

Tell us which Ratio WT-kd/clone-kd value is on record for felinized clone 101 Fab-SASA variant F112H (VH) (Fab, V domains shown, not shown: small tags and cut ends) VH: DVQLVESGGDLVKPGGSLRLTCVASGLSLTSSSMSWVRQAPGKGLQWVSTIYSNGGTYYTDSVKGRFTISKDNAENTLYLQMNNLKTEDTATYYCASIYYYDADYLHWYFDHWGQGALVTVSS VL: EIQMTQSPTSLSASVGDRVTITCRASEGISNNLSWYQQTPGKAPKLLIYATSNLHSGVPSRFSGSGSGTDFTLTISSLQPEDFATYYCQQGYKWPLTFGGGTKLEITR
1.48

Tell us which Ratio WT-kd/clone-kd value is on record for felinized clone 101 Fab-SASA variant D104N (VH) (Fab, V domains shown, not shown: small tags and cut ends) VH: DVQLVESGGDLVKPGGSLRLTCVASGLSLTSSSMSWVRQAPGKGLQWVSTIYSNGGTYYTDSVKGRFTISKDNAENTLYLQMNNLKTEDTATYYCASIYYYDANYLHWYFDFWGQGALVTVSS VL: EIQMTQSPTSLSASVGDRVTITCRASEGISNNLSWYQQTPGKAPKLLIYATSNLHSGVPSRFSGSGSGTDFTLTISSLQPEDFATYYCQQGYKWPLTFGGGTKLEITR
2.11

Tell us which Ratio WT-kd/clone-kd value is on record for felinized clone 101 Fab-SASA variant D104K (VH) (Fab, V domains shown, not shown: small tags and cut ends) VH: DVQLVESGGDLVKPGGSLRLTCVASGLSLTSSSMSWVRQAPGKGLQWVSTIYSNGGTYYTDSVKGRFTISKDNAENTLYLQMNNLKTEDTATYYCASIYYYDAKYLHWYFDFWGQGALVTVSS VL: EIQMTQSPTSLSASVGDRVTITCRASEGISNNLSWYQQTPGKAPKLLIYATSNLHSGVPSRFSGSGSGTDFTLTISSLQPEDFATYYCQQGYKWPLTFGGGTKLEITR
2.84

Tell us which Ratio WT-kd/clone-kd value is on record for felinized clone 101 Fab-SASA variant S56N (VL) (Fab, V domains shown, not shown: small tags and cut ends) VH: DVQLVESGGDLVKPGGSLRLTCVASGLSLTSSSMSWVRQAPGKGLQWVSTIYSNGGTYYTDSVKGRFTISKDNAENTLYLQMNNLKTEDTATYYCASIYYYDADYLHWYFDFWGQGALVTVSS VL: EIQMTQSPTSLSASVGDRVTITCRASEGISNNLSWYQQTPGKAPKLLIYATSNLHNGVPSRFSGSGSGTDFTLTISSLQPEDFATYYCQQGYKWPLTFGGGTKLEITR
1.04

Tell us which Ratio WT-kd/clone-kd value is on record for felinized clone 101 Fab-SASA variant S30Y (VL) (Fab, V domains shown, not shown: small tags and cut ends) VH: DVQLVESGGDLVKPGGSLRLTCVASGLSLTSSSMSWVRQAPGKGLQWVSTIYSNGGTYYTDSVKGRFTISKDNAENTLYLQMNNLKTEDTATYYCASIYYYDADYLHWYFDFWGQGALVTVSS VL: EIQMTQSPTSLSASVGDRVTITCRASEGIYNNLSWYQQTPGKAPKLLIYATSNLHSGVPSRFSGSGSGTDFTLTISSLQPEDFATYYCQQGYKWPLTFGGGTKLEITR
1.21

Tell us which Ratio WT-kd/clone-kd value is on record for felinized clone 101 Fab-SASA variant N53V (VL) (Fab, V domains shown, not shown: small tags and cut ends) VH: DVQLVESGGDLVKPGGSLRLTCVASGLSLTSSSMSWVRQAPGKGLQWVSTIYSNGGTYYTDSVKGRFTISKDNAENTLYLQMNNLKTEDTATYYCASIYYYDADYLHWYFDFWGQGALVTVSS VL: EIQMTQSPTSLSASVGDRVTITCRASEGISNNLSWYQQTPGKAPKLLIYATSVLHSGVPSRFSGSGSGTDFTLTISSLQPEDFATYYCQQGYKWPLTFGGGTKLEITR
2.32

Tell us which Ratio WT-kd/clone-kd value is on record for felinized clone 101 Fab-SASA variant S34A (VL) (Fab, V domains shown, not shown: small tags and cut ends) VH: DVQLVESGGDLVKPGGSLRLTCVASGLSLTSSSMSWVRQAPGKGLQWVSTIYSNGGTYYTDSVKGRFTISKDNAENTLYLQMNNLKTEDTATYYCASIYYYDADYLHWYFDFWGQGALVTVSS VL: EIQMTQSPTSLSASVGDRVTITCRASEGISNNLAWYQQTPGKAPKLLIYATSNLHSGVPSRFSGSGSGTDFTLTISSLQPEDFATYYCQQGYKWPLTFGGGTKLEITR
1.2
